Please go through the items and note down their Potentiation (relative values with a control as 1), kainic acid.
test system: non-NMDA receptors; test: Potentiation of AMPA- or kainic acid-elicited membrane current in Xenopus oocytes injected with rat hippocampus poly(A)+ RNA (two-electrode voltage clamp); settings: xenopus oocytes, 50 µM
Could you keep your reply to the number by itself?

non-NMDA receptors assay, compound O=C(O)COc1ccc(SCCNS(=O)(=O)c2ccc(Br)cc2)cc1F [Compound 106] , recorded Potentiation (relative values with a control as 1), kainic acid = 1.5

non-NMDA receptors assay, compound NC(=O)COc1ccc(SCCNS(=O)(=O)c2ccccc2)cc1F [Compound 142] , recorded Potentiation (relative values with a control as 1), kainic acid = 1.5

non-NMDA receptors assay, compound O=C(O)COc1c(F)cc(SCCNS(=O)(=O)c2ccc(Cl)cc2)cc1F [Compound 68] , recorded Potentiation (relative values with a control as 1), kainic acid = 1.6

non-NMDA receptors assay, compound NC(=O)Cc1ccc(SCCNS(=O)(=O)c2ccccc2)cc1 [Compound 145] , recorded Potentiation (relative values with a control as 1), kainic acid = 1.5

non-NMDA receptors assay, compound COC(=O)COc1c(F)cc(SCCNS(=O)(=O)c2ccc(Cl)cc2)cc1F [Compound 128] , recorded Potentiation (relative values with a control as 1), kainic acid = 1.6

non-NMDA receptors assay, compound CN(C)C(=O)COc1ccc(SCCNS(=O)(=O)c2ccccc2)cc1F [Compound 143] , recorded Potentiation (relative values with a control as 1), kainic acid = 1.6
